Tested on: SW684
TEST DESCRIPTION: relative viability vs DMSO control (72 h) (fraction); higher = more viable cells
REPORTED CONDITIONS: 10 µM
OBSERVED PROPERTY: relative viability
Answer field: number only, no words.

Use these answered entries as a reference point.
[
  {
    "MOLECULE": "CN(C)C/C=C/C(=O)Nc1cc2c(Nc3ccc(F)c(Cl)c3)ncnc2cc1O[C@H]1CCOC1",
    "relative viability": 0.203
  },
  {
    "MOLECULE": "O=C(/C=C\\n1cnc(-c2cc(C(F)(F)F)cc(C(F)(F)F)c2)n1)NNc1cnccn1 [Selinexor]",
    "relative viability": 0.686
  },
  {
    "MOLECULE": "COC(=O)c1ccc2c(c1)NC(=O)/C2=C(\\Nc1ccc(N(C)C(=O)CN2CCN(C)CC2)cc1)c1ccccc1",
    "relative viability": 0.422
  }
]

[ask] Supply relative viability value. Item: CS(=O)(=O)CCNCc1ccc(-c2ccc3ncnc(Nc4ccc(OCc5cccc(F)c5)c(Cl)c4)c3c2)o1
[reply] 0.707

###

Tested on: KHOS-NP
TEST DESCRIPTION: relative viability vs DMSO control (72 h) (fraction); higher = more viable cells
REPORTED CONDITIONS: 3.333 µM
relative viability overview

[
  {
    "COMPOUND": "COc1cc(Nc2ncc3c(n2)-c2ccc(Cl)cc2C(c2c(F)cccc2OC)=NC3)ccc1C(=O)O",
    "RESULT": 0.925
  },
  {
    "COMPOUND": "CS(=O)(=O)CCNCc1ccc(-c2ccc3ncnc(Nc4ccc(OCc5cccc(F)c5)c(Cl)c4)c3c2)o1",
    "RESULT": 1.02
  },
  {
    "COMPOUND": "CO[C@H]1C[C@@H]2CC[C@@H](C)[C@@](O)(O2)C(=O)C(=O)N2CCCC[C@H]2C(=O)O[C@H]([C@H](C)C[C@@H]2CC[C@@H](OC(=O)C(C)(CO)CO)[C@H](OC)C2)CC(=O)[C@H](C)/C=C(\\C)[C@@H](O)[C@@H](OC)C(=O)[C@H](C)C[C@H](C)/C=C/C=C/C=C/1C",
    "RESULT": 0.907
  },
  {
    "COMPOUND": "C#Cc1cccc(Nc2ncnc3cc4c(cc23)OCCOCCOCCO4)c1",
    "RESULT": 1.08
  },
  {
    "COMPOUND": "CNC(=O)c1c(C)oc2cc(Oc3ncnc4cc(OC)c(OC)cc34)ccc12",
    "RESULT": 1.03
  },
  {
    "COMPOUND": "O=S(=O)(c1cccc2c(O)nccc12)N1CCCNCC1 [Hydroxyfasudil]",
    "RESULT": 1.05
  },
  {
    "COMPOUND": "O=C(c1ccc(F)c(F)c1Nc1ccc(I)cc1F)N1CC(O)([C@@H]2CCCCN2)C1",
    "RESULT": 0.28
  }
]

Next, consider the following compound.
[ask] Supply relative viability value. Item: O=C(/C=C\n1cnc(-c2cc(C(F)(F)F)cc(C(F)(F)F)c2)n1)NNc1cnccn1 [Selinexor]
[reply] 0.0993

###

relative viability overview
Tested on: RD-ES
TEST DESCRIPTION: relative viability vs DMSO control (72 h) (fraction); higher = more viable cells
REPORTED CONDITIONS: 0.00152 µM
Answer field: number only, no words.

[
  {
    "MOLECULE": "CCS(=O)(=O)N1CC(CC#N)(n2cc(-c3ncnc4[nH]ccc34)cn2)C1",
    "relative viability": 0.947
  }
]

Next, consider the following molecule.
[ask] Supply relative viability value. Item: Cc1cc(F)c(C(=O)Nc2cccc(-c3nncn3C(C)C)n2)cc1-n1cnc(C2CC2)c1
[reply] 0.955

The values you see were collected from the supplement of paper PMC10883282.
